B1: Far upstream element-binding protein 2, residues 142 to 214; numbered along this chain, Q92945 (parent)
chain: RTSMTEEYRVPDGMVGLIIGRGGEQINKIQQDSGCKVQISPDSGGLPERSVSLTGAPESVQKAKMMLDDIVSR

# Variants of: B1
# ASSAY PROCEDURE: abundance fitness (aPCA) (normalised: wild type 0, dead -1); higher = more abundant; growth selection in yeast, the domain comes from the species named
# PARTICULARS: Homo sapiens
REPORTED METRIC: abundance fitness
I only need the number, thanks.

Some solved cases for reference:
// query Identify measured abundance fitness associated with RTSMTEEYRVPDGMVGLIIGRGGEQINKIQQDSGCKVQISPDSGGLPERSVSLTGAPESVQKAPMMLDDIVSR [K64P]
// result -0.687

// query Identify measured abundance fitness associated with RTSMTEEYRVPDGMVGLIIGRGGEQINKIQQDSGCKVQISPDSGGLPERSMSLTGAPESVQKAKMMLDDIVSR [V51M]
// result -0.122

// query Identify measured abundance fitness associated with RTSMTEEYRVPDGMVGLIIGRGGEQINKIQQDSGCKVMISPDSGGLPERSVSLTGAPESVQKAKMMLDDIVSR [Q38M]
// result 0.007

Kindly review the next variant as well.
// query Identify measured abundance fitness associated with RTSMTEEYRVPDGMVGLIIGRGGEQINKIQQDSGCKVQISPDSGGLPERDVSLTGAPESVQKAKMMLDDIVSR [S50D]
// result -0.289
